- System name: AjFoxO (rAjFoxO) (Apostichopus japonicus, UniProt A0A2G8KG36 1-567)
- Protocol details: EMSA
Value kind: binding result

>>> print(df.to_string())
                                     binder      value_kind   obs_value
0  AjATG4 WT probe (dsDNA) DNA 1: TTTACGGCGCCTGTTTACGTCATCAACC DNA 2: GGTTGATGACGTAAACAGGCGCCGTAAA  binding result       binds
1  AjATG4 Mut probe (dsDNA) DNA 1: TTTACGGCGCGACAAAACGTCATCAACC DNA 2: GGTTGATGACGTTTTGTCGCGCCGTAAA  binding result  no binding
2  AjLC3 WT probe (dsDNA) DNA 1: ATATCCTTTTGTCTGTTTTTCGGAAAG DNA 2: CTTTCCGAAAAACAGACAAAAGGATAT  binding result       binds
3  AjLC3 Mut probe (dsDNA) DNA 1: ATATCCTTTTGTGACACCTTCGGAAAG DNA 2: CTTTCCGAAGGTGTCACAAAAGGATAT  binding result  no binding
